- System: alpha2B receptor (Homo sapiens, UniProt P18089)
- Construct: expressed in transfected cells; host or cells: NIH-3T3 cells
- Sequence (P18089 whole entry): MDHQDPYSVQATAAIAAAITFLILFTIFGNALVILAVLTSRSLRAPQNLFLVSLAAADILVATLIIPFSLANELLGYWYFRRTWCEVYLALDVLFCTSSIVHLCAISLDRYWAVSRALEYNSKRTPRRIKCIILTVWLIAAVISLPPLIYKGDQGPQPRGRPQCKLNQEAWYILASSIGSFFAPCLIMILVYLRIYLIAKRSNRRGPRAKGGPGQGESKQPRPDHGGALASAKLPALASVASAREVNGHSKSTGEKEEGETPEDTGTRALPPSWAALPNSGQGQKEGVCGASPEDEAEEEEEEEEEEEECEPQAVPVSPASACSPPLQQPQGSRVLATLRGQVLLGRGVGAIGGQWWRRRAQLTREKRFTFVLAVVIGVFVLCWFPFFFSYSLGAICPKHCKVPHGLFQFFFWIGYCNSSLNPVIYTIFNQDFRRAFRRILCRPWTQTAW
- Test Protocol: Receptor Selection and Amplification Technology (RSAT) assay, alpha2B
- Format: cell-based
- Test Context: RSAT; ratio of maximal effect to that of standard full agonist brimonidine (UK14304); value in brackets
Property: Alpha 2B intrinsic activity (efficacy)
Lab note: record just the number, no unit beside it.

Bench note: what Alpha 2B intrinsic activity (efficacy) did Fc1c(Cl)cccc1C(c1ccncc1)c1cnc[nH]1 (stereo not drawn) show?
1.02

Bench note: what Alpha 2B intrinsic activity (efficacy) did Cc1c(Cl)cccc1C(c1ccncc1)c1c[nH]cn1 (stereo not drawn) show?
1.10

Bench note: what Alpha 2B intrinsic activity (efficacy) did Cc1cccc(C(c2ccccn2)c2c[nH]cn2)c1C (stereo not drawn) show?
1.22

Bench note: what Alpha 2B intrinsic activity (efficacy) did Cc1c(F)cccc1C(c1ccncc1)c1c[nH]cn1 (stereo not drawn) show?
1.17

Bench note: what Alpha 2B intrinsic activity (efficacy) did Clc1cccc(C(c2cccnc2)c2c[nH]cn2)c1Cl (stereo not drawn) show?
1.15

Bench note: what Alpha 2B intrinsic activity (efficacy) did Fc1ccccc1C(c1ccncc1)c1c[nH]cn1 (stereo not drawn) show?
0.78

Bench note: what Alpha 2B intrinsic activity (efficacy) did CC(C)c1ccc(C(c2c[nH]cn2)c2cccc(F)c2Cl)s1 (stereo not drawn) show?
0.40

Bench note: what Alpha 2B intrinsic activity (efficacy) did Fc1cccc(C(c2cccnc2)c2c[nH]cn2)c1Cl (stereo not drawn) show?
0.98

Bench note: what Alpha 2B intrinsic activity (efficacy) did Fc1cccc(C(c2cccnc2)c2c[nH]cn2)c1 (stereo not drawn) show?
1.01

Bench note: what Alpha 2B intrinsic activity (efficacy) did Fc1c(C(c2ccccn2)c2c[nH]cn2)cccc1C(F)(F)F (stereo not drawn) show?
1.1

Bench note: what Alpha 2B intrinsic activity (efficacy) did Fc1c(Cl)cccc1C(c1cccnc1)c1cnc[nH]1 (stereo not drawn) show?
1.34
